target: repeat Tau (K18) (Homo sapiens, UniProt P10636)
Sequence (P10636 561-689 limits assumed): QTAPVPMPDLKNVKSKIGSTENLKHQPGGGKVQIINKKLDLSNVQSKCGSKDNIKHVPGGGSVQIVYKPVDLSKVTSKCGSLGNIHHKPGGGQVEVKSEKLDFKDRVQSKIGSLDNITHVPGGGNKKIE
endpoint.name: pKd
Convention used: pKd is expressed as -log10 of the molar concentration.

Input line: Reported pKd for O=c1cc(-c2ccccc2)oc2cc(O)c(O)c(O)c12 [Baicalein] : what is it?
Output line: 5.46

Data origin: paper doi:10.1101/704536v1
